Reported values of tube area decrease for individual entries
# protocol details: inhibition of endothelial tube formation, primary screen, imaging, VEGF stimulated, CD31 staining, tube area, NPC library (AID 1117340)
# condition summary: VEGF-stimulated ADSC/ECFC co-culture, at 10 µM, hits give high values
Response body: numeric value in %, unit text excluded.

Sample records with tube area decrease:
In [3]: df
Out[3]:
                                   molecule  endpoint_unit  numeric_value
0         Cn1c(=O)c2c(ncn2CC2OCCO2)n(C)c1=O              %           -3.4
1  Clc1ccc(C(Cn2ccnc2)OCc2c(Cl)cccc2Cl)c(Cl)c1 (stereo not drawn)              %            107
2  CC(C)(C)NCC(O)c1ccc(O)c(CO)c1 (stereo not drawn)              %           -7.8
3                          O=C(O)CCCCC(=O)O              %           -7.7
4           NC(=O)Cc1cccc(C(=O)c2ccccc2)c1N              %           12.4

Give the reported tube area decrease for this molecule. CC(C)(C)C(=O)C(Oc1ccc(Cl)cc1)n1ccnc1 (stereo not drawn) 11.3

Give the reported tube area decrease for this molecule. `O=C1OC2(c3ccc(O)cc3Oc3cc(O)ccc32)c2ccccc21` 15.8

Give the reported tube area decrease for this molecule. `C=CCn1c(=O)n([C@@H]2O[C@H](CO)[C@@H](O)[C@H]2O)c2nc(N)[nH]c(=O)c21` 12.2

Give the reported tube area decrease for this molecule. `CN(C)CCn1nnnc1SCC1=C(C(=O)O)N2C(=O)[C@@H](NC(=O)Cc3csc(N)n3)[C@H]2SC1` -30.8

Give the reported tube area decrease for this molecule. O=C(CS(=O)Cc1ccco1)NC/C=C\COc1cc(CN2CCCCC2)ccn1 (stereo not drawn) 8

Give the reported tube area decrease for this molecule. `Cc1ncc([N+](=O)[O-])n1C` -11.6

Give the reported tube area decrease for this molecule. `O=C(O)CN(CCN(CC(=O)O)CC(=O)O)CCN(CC(=O)O)CC(=O)O` -14.3

Give the reported tube area decrease for this molecule. `O=C(O)CCn1c2c(c3ccccc31)C[C@H](NS(=O)(=O)c1ccc(F)cc1)CC2` -6.1

Give the reported tube area decrease for this molecule. `COc1ccc(/C=N/NC(=O)c2ccncc2)cc1OC` 12.2

Give the reported tube area decrease for this molecule. `CC(=O)Nc1ccc(C(=O)O)cc1` -12.7

Give the reported tube area decrease for this molecule. `C[C@@H]1C[C@H]2[C@@H]3CCC4=CC(=O)C=C[C@]4(C)[C@@]3(Cl)[C@@H](O)C[C@]2(C)[C@@]1(OC(=O)c1ccco1)C(=O)CCl` 99.7

Give the reported tube area decrease for this molecule. `CCOC(=O)[C@H](CCc1ccccc1)N[C@H]1CS[C@H](c2cccs2)CN(CC(=O)O)C1=O` -13.9

Give the reported tube area decrease for this molecule. `NCCC(O)(P(=O)(O)O)P(=O)(O)O` 8.2
